- Tested on: A498 renal
- Experiment Summary: NCI-60 one-dose screen, 48 h
- Condition: 10 µM unless noted
Compounds without any hit were thinned out: in the full panel of roughly 83,000, 20% have a hit. The source made the active and inactive calls. How the source made its calls: active means growth percent below 10; inactive means the rest.
In this exercise, the only acceptable responses are active, inactive

A selection of reference data follows.
{"columns": ["Molecule", "Label Value"],
 "data": [
  ["CC1(C)NCCC[C@]2(C)[C@H]3C/C(=N\\O)C4[C@@H]5C[C@@](C)(CO)CC[C@]5(C)CC[C@@]4(C)[C@]3(C)CC[C@@H]12 (some centres undefined)", "inactive"],
  ["C=CC(=O)N1CC=C(c2cc3c(N[C@H](C)c4ccccc4)ncnc3[nH]2)CC1", "active"],
  ["N/C(=N\\C(N)=N\\c1nc2ccccc2s1)c1ccc(C(F)(F)F)cc1", "inactive"],
  ["COc1c(N2CC3CCCNC3C2)c(F)cc2c(=O)c(C(=O)N/N=C/c3c[nH]c4ccccc34)cn(C3CC3)c12 (centres undefined)", "inactive"],
  ["Cc1ccc(C2=Nn3c(nnc3-c3ccccc3)SC2)cc1", "active"],
  ["Nc1ncc(-c2ccc3ncnc(Nc4cccc(Cl)c4F)c3c2)cn1", "active"],
  ["NC(N)=Nc1ccc(Oc2cccc(Nc3ccc(Br)c(C(F)(F)F)c3)c2)cc1", "active"],
  ["Cn1ccnc1C(=O)/C=C/c1ccc(NC(=O)c2c(F)c(F)c(F)c(F)c2F)cc1", "inactive"]
]}

Task: Please share the test call associated with O=C1CCCC2=C1C(c1c[nH]c3ccc(Br)cc13)Cc1cc(Br)ccc1N2 (centres undefined) .
Result: inactive

Task: Please share the test call associated with Cn1cc(-c2nc(N)nnc2-c2c[nH]c3ccc(Br)cc23)c2cc(Br)ccc21 .
Result: inactive

Task: Please share the test call associated with COc1cc(/C=N/NC(=O)c2cn(C3CC3)c3c(OC)c(N4CC5CCCNC5C4)c(F)cc3c2=O)ccc1O (centres undefined) .
Result: inactive

Task: Please share the test call associated with O=C1Nc2ccccc2/C1=C/c1ccc(COCC2CO2)n1-c1ccc(O)cc1 (centres undefined) .
Result: inactive

Task: Please share the test call associated with Cc1ccc(-c2nn(-c3ccccc3)cc2/C=C/C(=O)c2ccc(NC(=O)CCCCCCC(=O)NO)cc2)cc1 .
Result: inactive

Task: Please share the test call associated with N#Cc1cccc(/C(N)=N/C(N)=N/c2nc3ccccc3s2)c1 .
Result: active

Task: Please share the test call associated with CC(=O)C1=C(C)NC(NN)=NC1c1cccc(Cl)c1 (centres undefined) .
Result: inactive

Task: Please share the test call associated with Cn1ccnc1C(=O)/C=C/C=C/c1ccc(C(=O)Nc2ccc(F)cc2)cc1 .
Result: inactive

Task: Please share the test call associated with CC(=O)c1cc(C(=O)N2c3ccccc3Sc3ccccc32)n2ccc3ccccc3c12 .
Result: inactive

Task: Please share the test call associated with Cn1ccnc1C(=O)/C=C/c1ccc(CNC(=O)c2ccc(F)cc2)cc1 .
Result: inactive

Task: Please share the test call associated with CCNC(=O)N1CCc2cc(OC)c(OCCc3ccc(OC)cc3)cc2C1c1ccc([N+](=O)[O-])cc1C (centres undefined) .
Result: active

###

Catalogue of growth values
- System: OVCAR-4 ovarian
- Experiment Summary: NCI-60 one-dose screen, 48 h (100 = growth as untreated, 0 = no growth, -100 = all killed)
- Condition: 10 µM unless noted
- Protocol: Growth inhibition of the OVCAR-4 human tumor cell line is measured as a screen for anti-cancer activity. Cells are grown in 96 well plates and exposed to the test compound for 48 hours. Compounds are tested at a single concentration, which is 10^-5 M for most compounds. The reported endpoint is percent growth (GI% or GIPRCNT), where numbers from 0 - 100% represent growth inhibition, and numbers from -100% - 0 represent cell death. For example, a value of 40 represents 60% growth inhibition. […]
About 83,000 compounds went through this panel and 20% of them were active in at least one assay; those are over-represented in the sample as a whole.
Write the number in % without appending the unit.

Notebook: O=C(CSc1nc2ccccc2c(=O)n1-c1ccccc1)Nc1ccc(-c2nc3ccc([N+](=O)[O-])cc3[nH]2)cc1 , growth read as 88.6

###

- Tested on: HOP-92 NSCLC
- Experiment Summary: NCI-60 one-dose screen, 48 h (100 = growth as untreated, 0 = no growth, -100 = all killed)
- Condition: 10 µM
- Protocol: Growth inhibition of the HOP-92 human Non-Small Cell Lung tumor cell line is measured as a screen for anti-cancer activity. Cells are grown in 96 well plates and exposed to the test compound for 48 hours. Compounds are tested at a single concentration, which is 10^-5 M for most compounds. The reported endpoint is percent growth (GI% or GIPRCNT), where numbers from 0 - 100% represent growth inhibition, and numbers from -100% - 0 represent cell death. […]
About 83,000 compounds went through this panel and 20% of them were active in at least one assay; those are over-represented in the sample as a whole.
Property Name: growth (%)
Write the number in % without appending the unit.

{"columns": ["Compound", "Tgt", "growth (%)"],
 "data": [
  ["NC(=O)c1c(NC(=O)c2ccc(F)cc2F)sc2c1CCC(=O)C2", "HOP-92 NSCLC", 66.1]
]}

Notebook: CCCCCc1ccc(S(=O)(=O)Nc2cccc(-c3csc(NC(=O)CCCCCN4CCN(CCO)CC4)n3)c2)cc1 , growth read as 62.7

Notebook: CS(=O)(=O)Nc1cc(-c2ccc3ncc(C#N)c(NCc4ccccc4O)c3c2)cnc1Cl , growth read as -10.8

###

- Test system: UACC-62 melanoma
- Experiment Summary: NCI-60 one-dose screen, 48 h
- Condition: 10 µM unless noted
The panel holds about 83,000 compounds, 20% with a hit somewhere; the sample as a whole holds those more often. The source made the active and inactive calls. Rule for the calls: active = growth percent below 10; inactive = the rest.
In this exercise, the only acceptable responses are active, inactive

A selection of reference data follows.
{"columns": ["Query Smiles", "Tgt", "Label Value"],
 "data": [
  ["COc1ccc(NCc2cn(-c3ccc(C(=O)O)cc3)nc2-c2cc(C(F)(F)F)cc(C(F)(F)F)c2)cc1", "UACC-62 melanoma", "inactive"],
  ["COc1ccccc1NC1=C(Cl)C(=O)c2nc(C)ccc2C1=O", "UACC-62 melanoma", "active"],
  ["COc1ccc(COc2ccc(/C=C3\\C(=O)Nc4ccccc43)cc2OC)cc1", "UACC-62 melanoma", "inactive"]
]}

We next turn to a different compound, shown below.
Task: Please share the test call associated with CCCSc1nc(Nc2ccc(/C(C)=N\NC(N)=S)cc2)c(C#N)c(-c2ccccc2)n1 .
Result: inactive

###

- Tested on: HCT-15 colon
- Experiment Summary: NCI-60 one-dose screen, 48 h (100 = growth as untreated, 0 = no growth, -100 = all killed)
- Condition: 10 µM unless noted
- Protocol: Growth inhibition of the HCT-15 human tumor cell line is measured as a screen for anti-cancer activity. Cells are grown in 96 well plates and exposed to the test compound for 48 hours. Compounds are tested at a single concentration, which is 10^-5 M for most compounds. The reported endpoint is percent growth (GI% or GIPRCNT), where numbers from 0 - 100% represent growth inhibition, and numbers from -100% - 0 represent cell death. For example, a value of 40 represents 60% growth inhibition. […]
The panel holds about 83,000 compounds, 20% with a hit somewhere; the sample as a whole holds those more often.
Catalogue of growth values
Write the number in % without appending the unit.

Examples from the recorded data:
{"columns": ["Molecule", "Tgt", "Units Of Measure", "Reported Result"],
 "data": [
  ["CNc1ncc2cc(-c3ccc(-c4ncccc4F)cc3Cl)c(=O)n(CC3OCC(N)CO3)c2n1 (centres undefined)", "HCT-15 colon", "%", 87.5],
  ["COc1cc(/C=C/C(=O)c2ccc(NC(=O)CSc3nnc(-c4ccc(-c5nc6ccc(Cl)cc6[nH]5)cc4)o3)cc2)cc(OC)c1OC", "HCT-15 colon", "%", 53.7],
  ["O=C(NNc1nc2cc(F)ccc2n2c(CN3CC4CNCC4C3)ccc12)c1cnccn1 (centres undefined)", "HCT-15 colon", "%", 18.1]
]}

Tested on HCT-15 colon: CS(=O)(=O)Nc1cc(-c2ccc3ncc(C#N)c(NCc4ccccc4O)c3c2)cnc1Cl . Observed growth: 8.71

Tested on HCT-15 colon: CCCCCc1ccc(S(=O)(=O)Nc2cccc(-c3csc(NC(=O)CCCCCN4CCN(C)CC4)n3)c2)cc1 . Observed growth: -7.05

Tested on HCT-15 colon: Cn1cc(-c2nnc(N)nc2-c2c[nH]c3ccc(F)cc23)c2cc(F)ccc21 . Observed growth: 62

Tested on HCT-15 colon: NC(N)=Nc1ccc(Oc2cccc(NC(N)=Nc3ccc(Cl)c(C(F)(F)F)c3)c2)cc1 . Observed growth: 84.3

Tested on HCT-15 colon: CN(C)CCNC(=O)c1ccc(-c2nc3ccc4[nH]ncc4c3c3c2COCC3)cc1 . Observed growth: 84.7

Tested on HCT-15 colon: O=C(CN1CCN(c2cc(=O)n(-c3ccccc3)c3ccccc23)CC1)Nc1ccc(F)cc1 . Observed growth: 69.2
